# reported self-splicing fitness (ln); entries follow
measurement-notes: self-splicing fitness, log relative to wild type (ln ratio); higher = more splicing; Tetrahymena group I intron in knt gene, E. coli kanamycin selection, DiMSum; sequences stand for … in CUCUCU…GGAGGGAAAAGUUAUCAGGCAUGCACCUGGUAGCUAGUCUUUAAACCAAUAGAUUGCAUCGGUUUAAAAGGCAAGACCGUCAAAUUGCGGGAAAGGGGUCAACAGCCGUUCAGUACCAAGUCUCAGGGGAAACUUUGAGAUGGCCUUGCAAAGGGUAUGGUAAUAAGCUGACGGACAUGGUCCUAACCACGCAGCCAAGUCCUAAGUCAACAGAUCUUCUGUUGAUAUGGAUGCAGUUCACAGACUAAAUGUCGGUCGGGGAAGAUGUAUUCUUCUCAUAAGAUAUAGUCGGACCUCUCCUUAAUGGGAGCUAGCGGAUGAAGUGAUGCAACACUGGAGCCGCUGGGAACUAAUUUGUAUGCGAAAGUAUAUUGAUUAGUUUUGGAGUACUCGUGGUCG;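 note: selection with 25 µg/mL kanamycin versus none on LB agar overnight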
experimental-context: 30 °C

chain	self-splicing fitness (ln)
GUGUAGCAAUAUUACGUACC	-1.2
GGCUAGCAAUAUUACGAGCA	-0.589
AGCCAGCAAUAUUACGGAGC	-2.39
UAGGAGCAAUAUUACGGAUG	-3.62
CCUUAGCAAUAUUACGUCCG	-1.73
GGGGAGCAAUAUUACGAUUA	-2.23
AGCUAGCAAUAUUACGAACC	-0.602
UGACAGCAAUAUUACGUAGG	-1.78
CUGCAGCAAUAUUACGCUGG	-3.66
ACAAAGCAAUAUUACGCUGC	-3.63
GAUCAGCAAUAUUACGUCUU	0.24
AGAGAGCAAUAUUACGAUGC	-3.3
UCCCAGCAAUAUUACGAACC	-1.58
GGCUAGCAAUAUUACGCGAA	-1.83
GACAAGCAAUAUUACGAUAG	-2.76
CAUUAGCAAUAUUACGGUGC	-4.19
CCGAAGCAAUAUUACGCCCG	-0.442
UCUCAGCAAUAUUACGUUAU	-2.98
ACGUAGCAAUAUUACGUCUA	-0.802
AAGGAGCAAUAUUACGACCU	-0.0623
GACUAGCAAUAUUACGGCCU	-1
UACAAGCAAUAUUACGGCGU	-1.14
GUGGAGCAAUAUUACGGCGA	-0.352
CGUUAGCAAUAUUACGACGA	-1.36
CAGCAGCAAUAUUACGCUGA	-3.02
GUUAAGCAAUAUUACGGGCA	-0.851
CACCAGCAAUAUUACGCCUA	-2.37
GUCGAGCAAUAUUACGCCCC	-1.19
AAAGAGCAAUAUUACGUCUU	-2.22
CUGAAGCAAUAUUACGUUUA	-3.97
GUGGAGCAAUAUUACGGCUU	-1.6
CCCUAGCAAUAUUACGUAGG	-2.61
AGGAAGCAAUAUUACGUGAA	-2.53
AGCUAGCAAUAUUACGCUAA	-1.97
GCUUAGCAAUAUUACGCCUG	-2.35
GUGCAGCAAUAUUACGACAG	-2.83
CCAGAGCAAUAUUACGGCUA	-2.84
AACGAGCAAUAUUACGAAUU	-2.78
UUCUAGCAAUAUUACGAUUA	-0.696
CGCAAGCAAUAUUACGCGUC	-3.7
GUCCAGCAAUAUUACGUUAG	-3.15
AAGAAGCAAUAUUACGCAAA	-2.71
CCGAAGCAAUAUUACGAUGA	-3.16
CUCCAGCAAUAUUACGAGCU	-4.01
UGGAAGCAAUAUUACGUCAA	-1.53
UCCUAGCAAUAUUACGAAGA	-1.13
UCUGAGCAAUAUUACGGCUC	-2.63
UUUCAGCAAUAUUACGUGUG	-0.986
AAGUAGCAAUAUUACGCUUG	-1.6
GCGCAGCAAUAUUACGAGGA	-1.89
GGACAGCAAUAUUACGCUUA	-0.319
CUUCAGCAAUAUUACGCUGG	-3.83
UCACAGCAAUAUUACGCACG	-1.22
UACAAGCAAUAUUACGCUCG	-1.26
CACCAGCAAUAUUACGGGUA	-0.28
CGACAGCAAUAUUACGCCAA	-2.18
CUCGAGCAAUAUUACGUAGG	-1.11
UUCUAGCAAUAUUACGUGAA	-0.339

====

measurement-notes: self-splicing fitness, log relative to wild type (ln ratio); higher = more splicing; Tetrahymena group I intron in knt gene, E. coli kanamycin selection, DiMSum; sequences stand for … in CUCUCU…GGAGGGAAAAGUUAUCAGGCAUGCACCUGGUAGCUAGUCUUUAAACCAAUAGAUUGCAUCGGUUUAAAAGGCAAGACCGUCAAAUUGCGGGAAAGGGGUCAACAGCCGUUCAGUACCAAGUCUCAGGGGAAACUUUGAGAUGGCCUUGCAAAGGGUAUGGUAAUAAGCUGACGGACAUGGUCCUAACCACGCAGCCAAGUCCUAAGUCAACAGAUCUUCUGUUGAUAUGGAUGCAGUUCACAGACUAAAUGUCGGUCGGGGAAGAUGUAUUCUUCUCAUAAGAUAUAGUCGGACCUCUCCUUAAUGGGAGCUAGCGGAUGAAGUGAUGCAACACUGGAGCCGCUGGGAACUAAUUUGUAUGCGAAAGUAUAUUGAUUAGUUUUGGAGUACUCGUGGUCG
experimental-context: 37 °C

chain	self-splicing fitness (ln)
AGUGAGCAAUAUUACGAGCA	-0.436
AGAUAGCAAUAUUACGACCA	1.11
ACAAAGCAAUAUUACGUAUU	-1.18
GUAAAGCAAUAUUACGUCUC	0.129
UCAAAGCAAUAUUACGAUGA	-0.51
UGACAGCAAUAUUACGUCGG	-0.734
CACGAGCAAUAUUACGGCUG	-0.237
AUAUAGCAAUAUUACGUCAU	-1.15
GCGAAGCAAUAUUACGAUAG	-1.51

====

measurement-notes: self-splicing fitness, log relative to wild type (ln ratio); higher = more splicing; Tetrahymena group I intron in knt gene, E. coli kanamycin selection, DiMSum; sequences stand for … in CUCUCU…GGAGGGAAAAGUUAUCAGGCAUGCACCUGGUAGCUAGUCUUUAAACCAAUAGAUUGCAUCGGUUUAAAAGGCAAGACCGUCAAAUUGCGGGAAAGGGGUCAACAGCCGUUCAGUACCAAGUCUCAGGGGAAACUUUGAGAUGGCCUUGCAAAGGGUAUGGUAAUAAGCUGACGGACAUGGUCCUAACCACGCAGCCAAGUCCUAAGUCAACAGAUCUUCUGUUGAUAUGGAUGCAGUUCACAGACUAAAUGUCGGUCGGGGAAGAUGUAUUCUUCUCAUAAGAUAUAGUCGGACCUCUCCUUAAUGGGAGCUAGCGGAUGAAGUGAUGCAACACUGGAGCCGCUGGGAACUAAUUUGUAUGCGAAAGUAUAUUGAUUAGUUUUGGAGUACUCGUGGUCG
experimental-context: 37 °C
Outcome: Fulfilled for self-splicing fitness (ln) of at least -2; Not fulfilled for anything lower.

chain	classification
AACAAGCAAUAUUACGAUCC	Fulfilled
CAUGAGCAAUAUUACGACGG	Fulfilled
ACCUAGCAAUAUUACGCUCU	Fulfilled
UGUGAGCAAUAUUACGACAG	Fulfilled
AGUUAGCAAUAUUACGAUUG	Fulfilled
CAUCAGCAAUAUUACGGGAA	Fulfilled
GAAUAGCAAUAUUACGGGAC	Not fulfilled
AUGAAGCAAUAUUACGGCGG	Fulfilled
UAGUAGCAAUAUUACGCCAC	Fulfilled
AAUGAGCAAUAUUACGCGAA	Not fulfilled
UAGAAGCAAUAUUACGCCGU	Not fulfilled
AUAUAGCAAUAUUACGGCUG	Fulfilled
GUAAAGCAAUAUUACGGCUU	Fulfilled
GCGAAGCAAUAUUACGGAAA	Fulfilled
CGGAAGCAAUAUUACGAGUA	Not fulfilled
GUUUAGCAAUAUUACGGGGA	Fulfilled
ACUGAGCAAUAUUACGCGAU	Fulfilled
UACCAGCAAUAUUACGAAUG	Fulfilled
CAACAGCAAUAUUACGACAC	Fulfilled
UCACAGCAAUAUUACGUUGA	Not fulfilled
GCUCAGCAAUAUUACGGGUA	Fulfilled
GAAAAGCAAUAUUACGAGUC	Fulfilled
GCGAAGCAAUAUUACGCGUG	Fulfilled
UAAUAGCAAUAUUACGAGCA	Fulfilled
UUCUAGCAAUAUUACGUUAU	Not fulfilled
GCAAAGCAAUAUUACGAAGU	Fulfilled
UUCAAGCAAUAUUACGGAUC	Not fulfilled
UAUGAGCAAUAUUACGUUGU	Not fulfilled
CUUUAGCAAUAUUACGAGAU	Not fulfilled

====

# reported self-splicing fitness (ln); entries follow
measurement-notes: self-splicing fitness, log relative to wild type (ln ratio); higher = more splicing; Tetrahymena group I intron in knt gene, E. coli kanamycin selection, DiMSum; sequences stand for … in CUCUCU…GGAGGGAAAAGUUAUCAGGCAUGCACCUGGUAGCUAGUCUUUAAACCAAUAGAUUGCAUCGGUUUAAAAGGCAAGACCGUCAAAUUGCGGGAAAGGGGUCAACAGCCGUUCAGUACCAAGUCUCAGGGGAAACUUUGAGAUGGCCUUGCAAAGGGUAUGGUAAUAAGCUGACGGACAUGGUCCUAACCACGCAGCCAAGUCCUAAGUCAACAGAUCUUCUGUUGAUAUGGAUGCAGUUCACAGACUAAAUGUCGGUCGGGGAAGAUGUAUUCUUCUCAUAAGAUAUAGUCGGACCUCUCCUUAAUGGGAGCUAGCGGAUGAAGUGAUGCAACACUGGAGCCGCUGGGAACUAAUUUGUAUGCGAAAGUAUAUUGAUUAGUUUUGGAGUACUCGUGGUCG
experimental-context: 37 °C
metric-name: self-splicing fitness (ln)

chain	measured-result
UUACAGCAAUAUUACGCGAG	-0.72
AUGUAGCAAUAUUACGGGGU	-3.12
ACGUAGCAAUAUUACGUCAC	-1.67
CUGGAGCAAUAUUACGCGAU	-1.9
GACUAGCAAUAUUACGAGUG	-0.316
UCGUAGCAAUAUUACGGGCU	-2.41
UAAUAGCAAUAUUACGUGGU	-2.75

Ref: the supplement of paper PMC7877785
